Measured Maximum Phytotoxicity of individual entries
System: BC4-M5M11
protocol summary: Test B greenhouse phytotoxicity, BC4-M5M11
Assay type: in vivo, sunflower
test context: in vivo
Structures can show the parent of a compound that is named as a salt.
Give just the numeric value; % need not be written.

Previously resolved entries follow.
>  <compound>
COC(=O)c1ccccc1S(=O)(=O)NC(=O)N(C)c1nc(C)nc(OC)n1

>  <endpoint label>
Maximum Phytotoxicity

>  <recorded value>
17.5

$$$$
>  <compound>
COC(=O)c1ccc(C(F)(F)F)nc1S(=O)(=O)NC(=O)Nc1nc(OC)cc(OC)n1 [Flupyrsulfuron-methyl-sodium]

>  <endpoint label>
Maximum Phytotoxicity

>  <recorded value>
60

$$$$
>  <compound>
COc1cc(OC)nc(NC(=O)NS(=O)(=O)N(C)S(C)(=O)=O)n1

>  <endpoint label>
Maximum Phytotoxicity

>  <recorded value>
57.5

$$$$
>  <compound>
CCS(=O)(=O)c1nc2ccccn2c1S(=O)(=O)NC(=O)Nc1nc(OC)cc(OC)n1

>  <endpoint label>
Maximum Phytotoxicity

>  <recorded value>
57.5

$$$$
>  <compound>
COc1cc(OC)nc(Sc2cccc(Cl)c2C(=O)O)n1 [Pyrithiobac-sodium]

>  <endpoint label>
Maximum Phytotoxicity

>  <recorded value>
42.5

$$$$
>  <compound>
COc1nc(C)nc(NC(=O)NS(=O)(=O)c2ccccc2Cl)n1

>  <endpoint label>
Maximum Phytotoxicity

>  <recorded value>
50

$$$$

Asked: Report Maximum Phytotoxicity for CCc1cnc(C2=NC(C)(C(C)C)C(=O)N2)c(C(=O)O)c1 (centres unmarked) [Imazethapyr (ammonium salt), Imazethapyr] please.
Given back: 25

Asked: Same again, this time with CCS(=O)(=O)c1cccnc1S(=O)(=O)NC(=O)Nc1nc(OC)cc(OC)n1
Given back: 47.5

Reference source for all entries: patent US6822146B2
